Please provide measured melting point for the entries that follow.

Input: Look up melting point: CC(=O)Oc1ccc(CC2SC(=O)N(C(c3ccccc3)(c3ccccc3)c3ccccc3)C2=O)cc1 (stereo not given)
Output: 152 to 156 °C

Input: Look up melting point: "Cc1[nH]c2ccccc2c1CCN1CCN(NC(=O)c2ccccc2)CC1"
Output: 130 to 133 °C

Input: Look up melting point: "O=C1CN(C(=O)c2ccccc2)c2cc(F)ccc2N1"
Output: 226 to 227 °C

Input: Look up melting point: CCC1Cc2ccc(NC(=N)c3cccs3)cc2CN1C (stereo not given)
Output: 125 to 126 °C

Input: Look up melting point: "NS(=O)(=O)c1ccc(C2=C(c3ccc(-c4cscn4)cc3)C(=O)OC2)cc1F"
Output: 194 °C

* * *

observation type: melting point

Input: Look up melting point: "C#CCN1C(=O)COc2cc(F)ccc21"
Output: 98 to 100 °C

Input: Look up melting point: O=C(NCCOc1cccc2c1OCC(CO)O2)c1ccc(F)cc1 (stereo unspecified)
Output: 124 °C

Input: Look up melting point: "O=[N+]([O-])c1ccc(NCc2ccccc2)c(F)c1"
Output: 97.5 to 99 °C

Input: Look up melting point: "CC(C)(C)OC(=O)[C@@H]1CNC(=O)N1C(=O)OCc1ccccc1"
Output: 138 to 139 °C

Input: Look up melting point: "O=C(NCc1ccccn1)c1ccnc(N2CCN(CC3CC3)C2=O)c1"
Output: 122 to 123 °C

Input: Look up melting point: CC(C)C(c1ccc(N)c([N+](=O)[O-])c1)n1cncn1 (stereo unspecified)
Output: 206 °C

* * *

observation type: melting point

Input: Look up melting point: CC(C)(C)c1cc(Cl)cc2c1OC(=O)C2O (stereo unspecified)
Output: 150 to 154 °C

Input: Look up melting point: CCC1=CN2CC(c3ccc(Br)cc3)N=C2S1 (stereo unspecified)
Output: 74.8 °C

Input: Look up melting point: "CC(C)c1ccc(C(=O)c2c(N)sc3c2CCN(Cc2ccccc2)C3)cc1"
Output: 157 to 158 °C

Input: Look up melting point: "O=S1(=O)N=CN(C2CCCCCCC2)c2ccc(Cl)cc21"
Output: 235 to 237 °C

Input: Look up melting point: "CC1=C(c2ccc(C(=O)O)cc2)CCCC1"
Output: 176 to 178 °C

Input: Look up melting point: "CCOC(=O)C(Cc1ccccc1)(Cc1ccc([N+](=O)[O-])cc1)C(=O)OCC"
Output: 70 to 71 °C

Input: Look up melting point: "CC(=O)N1CCn2c1c(-c1ccccc1)c1ncccc1c2=O"
Output: 229 to 231 °C

Input: Look up melting point: "CC(=O)c1c[nH]c2nccc(-c3ccccc3)c12"
Output: > 210 °C

Input: Look up melting point: "CCOCc1nc2c(N)nc3cc(-c4cccnc4)ccc3c2n1CCCCNC(=O)OC(C)(C)C"
Output: 117 to 119 °C

Input: Look up melting point: "Cc1cc(-c2c(C)ccc(C(=S)OC(C)(C)C)c2C)on1"
Output: 102 to 103 °C

Input: Look up melting point: "COc1cccc(-c2ccnc3c(C(N)=O)ncn23)c1"
Output: 249 to 252 °C

* * *

Please provide measured melting point for the entries that follow.

Input: Look up melting point: O=C1Cc2cc(O)cc(O)c2C2CCCCC12 (stereo not drawn)
Output: 220 to 223 °C

Input: Look up melting point: "COc1ccc(-c2oncc2CO)cc1OC"
Output: 83 to 84 °C

Input: Look up melting point: COc1cc(OC)nc(NC(=O)NS(=O)(=O)c2ccccc2C(CF)OC(C)=O)n1 (stereo not drawn)
Output: 176 to 178 °C

Input: Look up melting point: "O=C1Nc2ccc(Br)cc2C12OCCCO2"
Output: 166 to 168 °C

Input: Look up melting point: CC12CCC(=O)NC1=CCC1C2CCC2(C)C(=NN)CCC12 (stereo not drawn)
Output: 379 to 382 °C

Input: Look up melting point: COC(=O)C1C=CCN2C(=O)C(CCO)(Cc3ccccc3)C(=O)N12 (stereo not drawn)
Output: 148 to 149 °C

Input: Look up melting point: "NCc1cccc(O)c1"
Output: 79 to 81 °C

Input: Look up melting point: "Brc1cnc(SCc2ccccc2)nc1"
Output: 68 to 69 °C

Input: Look up melting point: "COc1ccc(-c2c(N)cnc3ccc(Cl)cc23)c(OC)c1OC"
Output: 180 to 181 °C

Input: Look up melting point: "Cc1nc(S)c2[nH]cnc2n1"
Output: > 300 °C

Input: Look up melting point: "CCOC(=O)C=Cc1csc(Nc2ccccc2)n1"
Output: 113 to 118 °C

Input: Look up melting point: "O=C(c1ccccc1)C(Br)(Br)Br"
Output: 63 to 64 °C

Input: Look up melting point: "CCc1cccc2sc(COc3ccc(F)c(C(N)=O)c3F)nc12"
Output: 184 to 186 °C

Input: Look up melting point: "Cc1cccc(C(=O)c2ccc(Cl)cc2)c1"
Output: 108 °C

Input: Look up melting point: "COc1ccc(-n2nc(O)c3c(c2=O)Cc2ccc(Cl)cc2N3)c(C)c1"
Output: 264 to 266 °C

Input: Look up melting point: "COc1ccc2c(c1)cc1c3c(cccc32)C(=O)OC1=O"
Output: 292 to 293 °C

Input: Look up melting point: "CC(=O)Oc1c(C)cc(C(=O)Nc2c(CO)nc3c(C)cc(C)cc3c2-c2ccccc2Cl)cc1C"
Output: 134 to 136 °C

Input: Look up melting point: "COc1ccc(-c2cc3nccnc3[nH]2)cc1OCCO"
Output: 203 to 205 °C

Input: Look up melting point: "COc1ccc(CN(CCN(C)CCCCCCN=C(NC#N)NCCSCc2csc(NC(=N)N)n2)c2ccccn2)cc1"
Output: 52 °C

Input: Look up melting point: CC(C)Oc1ccccc1C1(OC(=O)N2CCN(c3ccncc3)CC2)C(=O)Nc2ccc(Cl)cc21 (stereo not drawn)
Output: 196 to 198 °C

Input: Look up melting point: "NNc1ccnc(-c2cccc(I)c2)n1"
Output: 179 to 181 °C

Input: Look up melting point: "COc1nc(Cl)nc(NC(=O)NS(=O)(=O)c2ccccc2OC(F)F)n1"
Output: 167 to 168 °C

Input: Look up melting point: O=c1ccc(-c2c(-c3ccccc3)nn3ccccc23)nn1CC1CCCCN1 (stereo not drawn)
Output: 141 to 142 °C

Input: Look up melting point: "c1ccc(Cc2cccc3c2[nH]c2ccccc23)cc1"
Output: 117 °C

Input: Look up melting point: CN1C(=O)C(c2ccc(OC(F)F)cc2)(c2cccnc2)N=C1N (stereo not drawn)
Output: 173 to 175 °C

Input: Look up melting point: "COc1ccc(C(=O)CI)cc1"
Output: 63 to 65 °C

Input: Look up melting point: COc1ccc(CN2C(=O)NC(=O)C2O)cc1OC (stereo not drawn)
Output: 143 to 144 °C

Input: Look up melting point: "Cc1nc(C)c(Cl)c(NCc2nccc(SCCCCSCc3ccncc3)c2C)n1"
Output: 104 to 106 °C

Input: Look up melting point: "O=C(c1ccc(OCCn2ccnc2)cc1)N1CCOCC1"
Output: 109 to 111 °C

Input: Look up melting point: "COCC1(F)CCN(c2ccc(N3C[C@H](CNC(C)=O)OC3=O)cc2F)CC1"
Output: 169 to 171 °C

Input: Look up melting point: "COC(=O)c1cc(NC(=N)N)c(NC(C)=O)cc1O"
Output: 233 to 234 °C

Input: Look up melting point: "Cc1c(-c2ccccc2)[nH]c(N2CCCC2=O)c1C#N"
Output: 140 to 141 °C

Input: Look up melting point: COC(=O)C1(CC#N)C(=O)N(Cc2ccc(Br)cc2F)C(=O)c2ccccc21 (stereo not drawn)
Output: 108 to 110 °C

Input: Look up melting point: CCOC(=O)C1C(=O)c2cc(OC)ccc2N=C1c1ccccc1 (stereo not drawn)
Output: 225 to 227 °C

Input: Look up melting point: CC(=O)OCC(OC(C)=O)C(OC(C)=O)C(OC(C)=O)C(C=O)OC(C)=O (stereo not drawn)
Output: 112 to 114 °C

Input: Look up melting point: "CCOC(=O)C(C#N)=CNc1ccc(C)cn1"
Output: 170 to 172 °C

Input: Look up melting point: "COc1c(Br)c(O)c(C=O)c(OC)c1Br"
Output: 103 to 104 °C

Input: Look up melting point: "Nc1nc(-c2cc(Cl)ccc2Cl)nc(N2CCN(C(c3ccccc3)c3ccccc3)CC2)n1"
Output: 217 to 218 °C

Input: Look up melting point: CCCCCS(=O)(=O)NC(=O)/C=C/c1ccc(OCC(O)COC(C)C)cc1Oc1ncc(C(F)(F)F)cc1Cl (stereo not drawn)
Output: 86 to 88 °C

Input: Look up melting point: "COc1ccc2oc(Cc3c(Cl)cccc3Cl)c(CC#N)c2c1"
Output: 184 °C

Input: Look up melting point: "CCOC(=O)c1nc(N)sc1-c1nc2cc(C)ccn2c1C"
Output: 226 to 228 °C

Input: Look up melting point: "CCCCc1ncc(CO)n1Cc1ccc(OCc2ccccc2C(=O)O)cc1"
Output: 115 to 116 °C

Input: Look up melting point: "O=C1C=C(c2ccc(Cl)c(Cl)c2)C(=O)N1Nc1ccccc1"
Output: 208 to 210 °C
